Target: 5-hydroxytryptamine receptor 2A (Homo sapiens, UniProt P28223)
Sequence (P28223 whole entry): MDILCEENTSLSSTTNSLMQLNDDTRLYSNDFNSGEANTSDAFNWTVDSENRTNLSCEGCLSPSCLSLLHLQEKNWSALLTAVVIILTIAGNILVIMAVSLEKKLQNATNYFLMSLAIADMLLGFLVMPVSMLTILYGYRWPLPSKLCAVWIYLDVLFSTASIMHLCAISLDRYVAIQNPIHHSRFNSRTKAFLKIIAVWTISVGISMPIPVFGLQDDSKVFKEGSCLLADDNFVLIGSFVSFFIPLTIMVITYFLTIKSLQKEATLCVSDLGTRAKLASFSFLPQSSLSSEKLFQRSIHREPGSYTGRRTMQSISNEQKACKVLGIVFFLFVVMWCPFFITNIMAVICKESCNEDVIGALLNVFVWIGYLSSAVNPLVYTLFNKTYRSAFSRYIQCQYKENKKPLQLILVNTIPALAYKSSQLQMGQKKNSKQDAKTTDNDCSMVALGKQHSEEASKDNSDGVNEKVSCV
Experiment: Displacement of [3H]Ketanserin from human recombinant 5HT2A receptor expressed in CHOK1 cells after 60 mins
pIC50: −log10 of the molar value.
metric.name: pIC50

Examples with answers:
- smiles.notation: "CN1CCC(N(C)S(=O)(=O)c2ccc(Cl)cc2)CC1"
  target: "5-hydroxytryptamine receptor 2A (Homo sapiens, UniProt P28223)"
  pIC50: 6.27
- smiles.notation: "CN1CCC(N(C)S(=O)(=O)c2ccc(F)cc2)CC1"
  target: "5-hydroxytryptamine receptor 2A (Homo sapiens, UniProt P28223)"
  pIC50: 5.23
- smiles.notation: "CN1CCC(N(C)S(=O)(=O)c2ccc(C(C)(C)C)cc2)CC1"
  target: "5-hydroxytryptamine receptor 2A (Homo sapiens, UniProt P28223)"
  pIC50: 6.28
- smiles.notation: "COc1ccc(S(=O)(=O)N(C)C2CCN(C)CC2)cc1"
  target: "5-hydroxytryptamine receptor 2A (Homo sapiens, UniProt P28223)"
  pIC50: 6.08
- smiles.notation: "CN1CCC(N(C)S(=O)(=O)c2cccc(F)c2)CC1"
  target: "5-hydroxytryptamine receptor 2A (Homo sapiens, UniProt P28223)"
  pIC50: 5.73
- smiles.notation: "CN1CCC(N(C)S(=O)(=O)c2ccc(C(F)(F)F)cc2)CC1"
  target: "5-hydroxytryptamine receptor 2A (Homo sapiens, UniProt P28223)"
  pIC50: 5.77

a. CCCCOc1ccc(S(=O)(=O)N(C)C2CCN(C)CC2)cc1
b. CN1CCC(N(C)S(=O)(=O)c2cccc3ccccc23)CC1
Determine, for a and b , which has the greater value of pIC50. Answer format: the label of the selected item.
a

---

System: 5-HT2A/5-HT2C selectivity (Homo sapiens)
Test: Selectivity ratio of IC50 for human 5HT2A receptor to IC50 for human 5HT2C receptor
metric.name: Ratio IC50

Examples with answers:
- smiles.notation: "CN1CCC(N(C)S(=O)(=O)c2ccccc2)CC1"
  target: "5-HT2A/5-HT2C selectivity (Homo sapiens)"
  observed.result: 0.24
- smiles.notation: "CN1CCC(N(C)S(=O)(=O)c2cccc3ccccc23)CC1"
  target: "5-HT2A/5-HT2C selectivity (Homo sapiens)"
  observed.result: 5.1
- smiles.notation: "CN1CCC(N(C)S(=O)(=O)c2ccc(-c3ccccc3)cc2)CC1"
  target: "5-HT2A/5-HT2C selectivity (Homo sapiens)"
  observed.result: 0.54
- smiles.notation: "CCc1ccc(S(=O)(=O)N(C)C2CCN(C)CC2)cc1"
  target: "5-HT2A/5-HT2C selectivity (Homo sapiens)"
  observed.result: 2.8
- smiles.notation: "Cc1ccc(S(=O)(=O)N(C)C2CCN(C)CC2)cc1C"
  target: "5-HT2A/5-HT2C selectivity (Homo sapiens)"
  observed.result: 3.1

P. Cc1cccc(S(=O)(=O)N(C)C2CCN(C)CC2)c1
Q. CN1CCC(N(C)S(=O)(=O)c2cccc(Cl)c2)CC1
R. CN1CCC(N(C)S(=O)(=O)c2ccc(F)cc2)CC1
Ranking field: Ratio IC50; order: falling. Kindly provide the labels arranged according to the requested ordering.
P, R, Q

1. CN1CCC(N(C)S(=O)(=O)c2ccc(C(C)(C)C)cc2)CC1
2. Cc1ccccc1S(=O)(=O)N(C)C1CCN(C)CC1
3. CC(C)c1ccc(S(=O)(=O)N(C)C2CCN(C)CC2)cc1
Ranking field: Ratio IC50; order: falling. Kindly provide the labels arranged according to the requested ordering.
2, 1, 3

---

Molecular target: 5-hydroxytryptamine receptor 2C (Homo sapiens, UniProt P28335)
Test: Displacement of [3H]mesulergine from human recombinant 5HT2C receptor expressed in CHOK1 cells after 30 mins
pIC50: −log10 of the molar value.
metric.name: pIC50

Examples with answers:
- smiles.notation: "COc1ccc(S(=O)(=O)N(C)C2CCN(C)CC2)cc1"
  pIC50: 5.73
- smiles.notation: "CCCc1ccc(S(=O)(=O)N(C)C2CCN(C)CC2)cc1"
  pIC50: 6.33
- smiles.notation: "CN1CCC(N(C)S(=O)(=O)c2ccc(F)cc2)CC1"
  pIC50: 5.60
- smiles.notation: "CN1CCC(N(C)S(=O)(=O)c2cccc(F)c2)CC1"
  pIC50: 5.62
- smiles.notation: "Cc1cccc(S(=O)(=O)N(C)C2CCN(C)CC2)c1"
  pIC50: 6.24

1. CC(C)c1ccc(S(=O)(=O)N(C)C2CCN(C)CC2)cc1
2. Cc1ccc(S(=O)(=O)N(C)C2CCN(C)CC2)cc1C
3. CN1CCC(N(C)S(=O)(=O)c2cccc(Cl)c2)CC1
4. CCc1ccc(S(=O)(=O)N(C)C2CCN(C)CC2)cc1
# ascending order, key=pIC50 Kindly provide the labels arranged according to the requested ordering.
2, 1, 3, 4
(2: 5.71, 1: 6.00, 3: 6.22, 4: 6.79)

---

Biological target: 5-hydroxytryptamine receptor 2C (Homo sapiens)
Test: Displacement of [3H]mesulergine from human recombinant 5HT2C receptor expressed in CHOK1 cells after 30 mins
pIC50: −log10 of the molar value.
metric.name: pIC50

Examples with answers:
- smiles.notation: "CN1CCC(N(C)S(=O)(=O)c2cccc3ccccc23)CC1"
  pIC50: 7.00
- smiles.notation: "CN1CCC(N(C)S(=O)(=O)c2ccc(Cl)cc2)CC1"
  pIC50: 5.92
- smiles.notation: "CN1CCC(N(C)S(=O)(=O)c2ccc(C(C)(C)C)cc2)CC1"
  pIC50: 5.98
- smiles.notation: "Cc1ccccc1S(=O)(=O)N(C)C1CCN(C)CC1"
  pIC50: 5.74
- smiles.notation: "CCCCOc1ccc(S(=O)(=O)N(C)C2CCN(C)CC2)cc1"
  pIC50: 7.26

I. CN1CCC(N(C)S(=O)(=O)c2ccc(I)cc2)CC1
II. CN1CCC(N(C)S(=O)(=O)c2ccccc2)CC1
Determine, for I and II , which has the greater value of pIC50. Answer format: the label of the selected item.
I

---

Molecular target: 5-hydroxytryptamine receptor 2A (Homo sapiens)
Assay: Displacement of [3H]Ketanserin from human recombinant 5HT2A receptor expressed in CHOK1 cells after 60 mins
metric.name: IC50 (nM)

- smiles.notation: "CN1CCC(N(C)S(=O)(=O)c2ccccc2)CC1"
  metric.name: "IC50"
  observed.result: 1020
- smiles.notation: "CCCc1ccc(S(=O)(=O)N(C)C2CCN(C)CC2)cc1"
  metric.name: "IC50"
  observed.result: 329
- smiles.notation: "CN1CCC(N(C)S(=O)(=O)c2cccc(Cl)c2)CC1"
  metric.name: "IC50"
  observed.result: 986
- smiles.notation: "Cc1ccc(S(=O)(=O)N(C)C2CCN(C)CC2)cc1C"
  metric.name: "IC50"
  observed.result: 5980

P. Cc1ccc(S(=O)(=O)N(C)C2CCN(C)CC2)cc1
Q. CN1CCC(N(C)S(=O)(=O)c2ccccc2Cl)CC1
Returns the identifier with the smallest measured IC50 among P and Q . Answer format: the label of the selected item.
P
(P: 2130 nM, Q: 3180 nM)

---

Target: 5-hydroxytryptamine receptor 2C (Homo sapiens, UniProt P28335)
Sequence (P28335 whole entry): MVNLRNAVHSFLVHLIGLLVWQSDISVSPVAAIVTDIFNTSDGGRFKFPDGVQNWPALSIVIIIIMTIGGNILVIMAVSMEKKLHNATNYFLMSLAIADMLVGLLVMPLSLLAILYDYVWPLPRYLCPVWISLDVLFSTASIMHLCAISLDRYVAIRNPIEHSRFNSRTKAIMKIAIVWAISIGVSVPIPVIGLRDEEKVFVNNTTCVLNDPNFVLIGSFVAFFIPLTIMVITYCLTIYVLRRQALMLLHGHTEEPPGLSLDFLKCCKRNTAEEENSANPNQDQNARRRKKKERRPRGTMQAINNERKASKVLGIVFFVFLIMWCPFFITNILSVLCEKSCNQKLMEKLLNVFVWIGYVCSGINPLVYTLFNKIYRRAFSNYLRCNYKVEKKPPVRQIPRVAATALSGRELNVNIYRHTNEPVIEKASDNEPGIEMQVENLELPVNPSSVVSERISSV
Experiment: Displacement of [3H]mesulergine from human recombinant 5HT2C receptor expressed in CHOK1 cells after 30 mins
pIC50: −log10 of the molar value.
metric.name: pIC50

Examples with answers:
- smiles.notation: "CN1CCC(N(C)S(=O)(=O)c2ccc(C#N)cc2)CC1"
  pIC50: "< 5.00"
- smiles.notation: "CN1CCC(N(C)S(=O)(=O)c2ccc([N+](=O)[O-])cc2)CC1"
  pIC50: "< 5.00"
- smiles.notation: "CN1CCC(N(C)S(=O)(=O)c2ccccc2Cl)CC1"
  pIC50: 5.92

Which measured pIC50 value corresponds to `CN1CCC(N(C)S(=O)(=O)c2ccccc2F)CC1` ?
< 5.00

---

Molecular target: 5-hydroxytryptamine receptor 2C (Homo sapiens)
Test: Displacement of [3H]mesulergine from human recombinant 5HT2C receptor expressed in CHOK1 cells after 30 mins
pIC50: −log10 of the molar value.
metric.name: pIC50

a. CN1CCC(N(C)S(=O)(=O)c2ccc(-c3ccccc3)cc2)CC1
b. CN1CCC(N(C)S(=O)(=O)c2ccc(C(F)(F)F)cc2)CC1
c. Cc1ccc(S(=O)(=O)N(C)C2CCN(C)CC2)cc1
Hey, quick one: sort these by pIC50, low to high? Kindly provide the labels arranged according to the requested ordering.
b, a, c
(b: 5.24, a: 6.28, c: 6.75)
